Attribution: the OligoGym collection

- target: LRRC1; note: reference of the scale not given here
- assay.name: pooled miR-30 sensor sort-seq; sequence = guide strand
- condition.notes: shRNA
measure.name: sensor-assay potency score (higher = more potent)

Ask | Retrieve sensor-assay potency score (higher = more potent) measured for TTTTCTGTAAGAACTAACTCAG and print it.
Reply | -0.115

Ask | Consider the sequence TCTCTTGACAAGTAGGTTCAGA . State its measured sensor-assay potency score (higher = more potent).
Reply | -0.443

Ask | Write down sensor-assay potency score (higher = more potent) measured for item TAGTTTTCCAATGCCATCCGGA
Reply | -0.337

Ask | Name the recorded sensor-assay potency score (higher = more potent) of the sequence listed here: TTGCCTGTGACACCTCTGCAGG
Reply | -1.09

Ask | For the sequence TTCTTCTAGTCTTCGCAGCTGG , report sensor-assay potency score (higher = more potent).
Reply | -0.37

Ask | Read off the recorded sensor-assay potency score (higher = more potent) for TTGACAGCACGCTCGTTCCAGG
Reply | -1.01

Ask | Fill in reported sensor-assay potency score (higher = more potent) for this entry: TTTTGTTTGAGTCCAGTCCTTT
Reply | -0.559

Ask | Give the value of sensor-assay potency score (higher = more potent) reported for the following: TAGCTGGAAAAATTGCTCGGGC
Reply | -0.498

Ask | Return sensor-assay potency score (higher = more potent) for the following sequence: TTTCGTAATTTGACTAGCTGGA
Reply | 0.0536
